Entry source: patent US8575156B2

molecular target: 11β-HSD1 (Homo sapiens, UniProt P28845); assay: biochemical; conditions: IC50 Range, Biological Test Example 1; microsomes from CHO cells overexpressing human 11β-HSD1
Sequence (P28845 whole entry): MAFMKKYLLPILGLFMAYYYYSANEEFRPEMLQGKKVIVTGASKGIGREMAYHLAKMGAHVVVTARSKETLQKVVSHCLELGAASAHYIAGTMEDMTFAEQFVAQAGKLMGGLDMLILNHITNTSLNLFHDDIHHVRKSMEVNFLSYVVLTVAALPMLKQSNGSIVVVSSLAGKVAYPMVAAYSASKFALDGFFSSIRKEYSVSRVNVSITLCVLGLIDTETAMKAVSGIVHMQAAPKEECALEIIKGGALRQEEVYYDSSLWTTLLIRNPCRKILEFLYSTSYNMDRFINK
pIC50: −log10 of the molar value.
REPORTED ENDPOINT: pIC50

Examples from the recorded data:
INPUT: For O=C1OC(CCO)(c2ccccc2)CCN1c1ccc(F)c(-c2ccc(F)cc2)c1 (single isomer, unassigned) [EXAMPLE 96 Isomer 1] , write its pIC50.
OUTPUT: > 7.00

INPUT: For C[C@@H](c1ccc(OC(F)F)cc1)N1CC[C@](CCCO)(c2ccccc2)OC1=O , write its pIC50.
OUTPUT: > 7.00

INPUT: For C[C@@H](c1ccc(F)cc1)N1CC[C@](CC(C)(C)O)(c2ccc(F)cc2)OC1=O , write its pIC50.
OUTPUT: > 7.00

INPUT: For O=C1OC(CCO)(c2ccc(F)cc2)CCN1c1ccc(F)c(-c2ccc(F)cc2F)c1 (stereo not drawn) , write its pIC50.
OUTPUT: > 7.00

INPUT: For CN(C)C(=O)c1ccc(-c2cccc(N3CCC(C)(c4ccccc4)OC3=O)c2)cc1 (stereo not drawn) , write its pIC50.
OUTPUT: 6.00 to 7.00

INPUT: For C[C@@H](C1CCCCC1)N1CC[C@](CC(O)CO)(c2ccc(F)cc2)OC1=O (single isomer, unassigned) [EXAMPLE 197 Isomer 1] , write its pIC50.
OUTPUT: > 7.00

INPUT: For C=CC[C@@]1(c2cccs2)CCN([C@@H](C)c2ccc(-c3ccc(F)cc3F)cc2)C(=O)O1 , write its pIC50.
OUTPUT: > 7.00

INPUT: For C[C@@H](c1ccc(Br)cc1)N1CC[C@](CCCN(C)S(C)(=O)=O)(c2ccccc2)OC1=O , write its pIC50.
OUTPUT: > 7.00

INPUT: For CC1(c2ccccc2)CCN(c2cccc(-c3ccc(S(=O)(=O)N4CCCC4)cc3)c2)C(=O)O1 (stereo not drawn) , write its pIC50.
OUTPUT: 6.00 to 7.00

INPUT: For C=CCC1(c2ccc(F)cc2)CCN([C@@H](C)c2ccccc2)C(=O)O1 (stereo partly drawn) , write its pIC50.
OUTPUT: > 7.00

Continuing:
INPUT: For C[C@@H](c1ccc(Cl)cc1)N1CC[C@](CCO)(c2ccccc2)OC1=O , write its pIC50.
OUTPUT: > 7.00

INPUT: For CC(O)C[C@]1(c2ccc(F)cc2)CCN([C@@H](C)c2ccc(Cl)cc2)C(=O)O1 (single isomer, unassigned) [EXAMPLE 203 Isomer 1] , write its pIC50.
OUTPUT: > 7.00

INPUT: For C[C@@H](c1ccc(-c2ccccc2)cc1)N1CC[C@](CCCO)(c2ccccc2)OC1=O , write its pIC50.
OUTPUT: > 7.00

INPUT: For CCOC(=O)COc1cccc([C@H](C)N2CCC(C)(c3ccccc3)OC2=O)c1 (stereo partly drawn) , write its pIC50.
OUTPUT: 6.00 to 7.00

INPUT: For C[C@@H](c1ccc(Br)cc1)N1CC[C@](CC(C)(C)C(N)=O)(c2ccc(F)cc2)OC1=O , write its pIC50.
OUTPUT: > 7.00

###

molecular target: 11β-HSD1 (Homo sapiens, UniProt P28845); conditions: Biological Test Example 1; 100 nM compound; 0.1 µM
REPORTED ENDPOINT: Average % inhibition at 100 nM (%)

INPUT: For CC(C)C1(CC(O)CO)CCN([C@@H](C)c2ccc(-c3ccc(F)cc3F)cc2)C(=O)O1 (single isomer, unassigned) [EXAMPLE 223 Isomer 3] , write its Average % inhibition at 100 nM.
OUTPUT: 27.8

INPUT: For C[C@@H](c1ccc(-c2ccc(F)cc2F)cc1)N1CCC(CCCO)(c2cccs2)OC1=O (single isomer, unassigned) [EXAMPLE 171 Isomer 1] , write its Average % inhibition at 100 nM.
OUTPUT: 95.7

INPUT: For C=CCC1(c2cccs2)CCN([C@@H](C)c2ccc(Br)cc2)C(=O)O1 (single isomer, unassigned) [EXAMPLE 157 Isomer 2] , write its Average % inhibition at 100 nM.
OUTPUT: 92.9

INPUT: For COc1ccc([C@H](C)N2CCC(CC(O)CO)(c3ccccc3)OC2=O)cc1 (single isomer, unassigned) [EXAMPLE 286 Isomer 1] , write its Average % inhibition at 100 nM.
OUTPUT: 94.1

P. CC(O)C[C@]1(c2ccc(F)cc2)CCN([C@@H](C)c2ccc(Cl)cc2)C(=O)O1 (single isomer, unassigned) [EXAMPLE 203 Isomer 2]
Q. CC(C)(C)OC(=O)N1CCC(N2CCC(CCCO)(c3ccccc3)OC2=O)C1 (single isomer, unassigned) [EXAMPLE 208 Isomer 2]
INPUT: // task: argmin of Average % inhibition at 100 nM over [ P , Q ] // output: label of the selected item
OUTPUT: Q
